B1: ANKRD40 (parent)
chain: SLRENDFIEIELDRQELTYQELLR

Variants of: B1
Assay: protein stability index of a GFP-peptide fusion (GPS, HEK-293T) (PSI 1-6); higher = more stable;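 further: lentivirally expressed fusions sorted by FACS into six bins by GFP to DsRed ratio, PSI derived from sequencing read proportions per bin multiplied by bin number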
Conditions: c terminus: a fixed tail appended
Parameter threshold = 3. Response is satisfied when protein stability index meets or exceeds it, else not satisfied.

Check out these entries, answers already filled in.
[[record]]
residue_sequence = "SLRENDFIEIELDRQELTYQELLF [R24F]"
classification = "not satisfied"

[[record]]
residue_sequence = "SLRENDFIEIELDRQELTYWELLR [Q20W]"
classification = "not satisfied"

[[record]]
residue_sequence = "SLRENDFIEIELDRQEETYQELLR [L17E]"
classification = "satisfied"

[[record]]
residue_sequence = "SLIENDFIEIELDRQELTYQELLR [R3I]"
classification = "not satisfied"


Task item: Assess whether reported protein stability index for SLRENDNIEIELDRQELTYQELLR [F7N] sits at 3 or higher.
Reply: satisfied

Task item: Same read-out for SLRENDFIEIELTRQELTYQELLR [D13T] ?
Reply: not satisfied

Task item: Same read-out for SLRENYFIEIELDRQELTYQELLR [D6Y] ?
Reply: not satisfied

Task item: Same read-out for SLRENDFIEIELDRQELNYQELLR [T18N] ?
Reply: satisfied
